target: T1, TnMUC1 peptide (fully glycosylated), biotinylated; test: SPR (Biacore T200), peptide 36-2 on CAP chip, scFv as analyte, 1:1 fit; average, restated in nM
T1 construct: Two batches (36-2 and 65-1) of the same peptide; also called 36-2; 7-36-2
# maps each entry to its Kd

Look over these answered cases.
[
  {
    "binder": "humanised anti-TnMUC1 scFv protein 13P16 (97A), L2-H3 (scFv, Supernatant of construct 6D16 in the Octet assay; purified 13P16 elsewhere. scFv of CAR MB024; also called 6D16) scFv: DIVMTQSPDSLAVSLGERATINCKSSQSLLNSGDQKNYLTWYQQKPGQPPKLLIFWASTRESGVPDRFSGSGSGTDFTLTISSLQAEDVAVYYCQNDYSYPLTFGQGTKLEIKGGGGSGGGGSGGGGSGGGGSQVQLVQSGAEVKKPGSSVKVSCKASGYTFTDHAIHWVRQAPGQGLEWMGHFSPGNTDIKYNDKFKGRVTITADKSTSTAYMELSSLRSEDTAVYYCKTSTFFFDYWGQGTTVTVSSAAAHHHHHH",
    "Kd": "174 nM"
  },
  {
    "binder": "humanised anti-TnMUC1 scFv protein 13P24 (77A), L3-H5 (scFv, Two purification lots (13P24, 28P24); also called 28P24; 6D24) scFv: ELVMTQSPDSLAVSLGERATINCKSSQSLLNSGDQKNYLTWYQQKPGQPPKLLIFWASTRESGVPDRFSGSGSGTDFTLTISSLQAEDVAVYYCQNDYSYPLTFGQGTKLEIKGGGGSGGGGSGGGGSGGGGSQVQLVQSGAEVKKPGSSVKVSCKASGYTFTDHAIHWVRQAPGQGLEWIGHFSPGNTDIKYNDKFKGRATLTVDRSTSTAYMELSSLRSEDTAVYFCKTSTFFFDYWGQGTTVTVSSAAAHHHHHH",
    "Kd": "46.4 nM"
  }
]

[ask] For humanised anti-TnMUC1 scFv protein 9P1 (88A), VL-VH humanised control (scFv, Control scFv designed from a humanised antibody of WO2015/159076 (10D2 is said to come from Ab2, so 10D1 by implication from Ab1); Neat supernatant of construct 10D1 in the Octet assay; purified protein 9P1 in Biacore and flow cytometry; also called 10D1) scFv: DIVMTQSPDSLAVSLGERATINCKSSQSLLNSGDQKNYLTWYQQKPGQPPKLLIYWASTRESGVPDRFSGSGSGTDFTLTISSLQAEDVAVYYCQNDYSYPLTFGQGTKVEIKGGGGSGGGGSGGGGSGGGGSQVQLVQSGAEVKKTGSSVKVSCKASGYTFTDHAIHWVRQAPGQALEWMGHFSPGNTDIKYNDKFKGRVTLTVDRSMSTAYMELSSLRSEDTAMYYCKTSTFFFDYWGQGTMVTVSSAAAHHHHHH , what is its reported Kd?
[reply] 23 nM
